assay: inhibitors of Sendai virus-induced IRF3 signaling, primary screen, TLR/RLR signaling modifier project, cell-based, Sendai virus stimulus, luciferase, 10K MLSCN set (AID 602276); conditions: HEK293 RL24 IRF3 luciferase reporter, at 10 µM, stronger effect = higher value;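 further: firefly luciferase from ISG56 promoter only with Renilla not read in this screen; 0% = Sendai virus plus DMSO and 100% = medium plus DMSO without virus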
Each record here notes measured inhibition.
Quick note: give the figure in %, leave out the unit.

Example cases with answers are listed next.
CCOC(=O)CSc1nnc([C@H](CC(C)C)NC(=O)OC(C)(C)C)o1; 13.5
COc1ccccc1CNC(=O)N[C@@H](Cc1ccccc1)C(=O)O; 12.8
Cc1ccc2nsnc2c1S(=O)(=O)N(Cc1cc2cccc(C)c2[nH]c1=O)CC1CCCO1 (stereo unspecified); 32.9
CCC(C)NC(=O)C1(C)CCC(=O)N1CCc1ccc(OC)c(OC)c1 (stereo unspecified); 5.13
CCN(CC)c1ccc(NC(=O)CN2CCN(CC(=O)Nc3ccccc3F)CC2)cc1; 12.9

Enquiry: GET /values?readout=inhibition&item= "N#CCCNCC1(c2ccccc2)CCCC1"
Return: 2.93

---

experiment: inhibitors of E-selectin induction by TNFa, primary screen, imaging, HUVEC, immunofluorescence, MLSMR starter and 10KST1 sets (AID 487); conditions: HUVEC TNFalpha-induced E-selectin immunofluorescence imaging, at 2 µM; stronger effect = higher value;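 further: signal is fraction of cell area covered by stained E-selectin grains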
measured-attribute: inhibition (%)
Quick note: give the figure in %, leave out the unit.

Example cases with answers are listed next.
CCc1c(C(=O)NCCc2ccc(OC)c(OC)c2)[nH]c(C)c1C(C)=O; 5.2
O=C(NCC(=O)N(c1cnc2ccccc2c1)C(C(=O)NC1CCCC1)c1ccncc1)c1ccco1 (stereo not drawn); -6.5
N#Cc1nc(-c2ccc(F)cc2)oc1N1CCCC1; 24.6
O=C(NCc1ccco1)c1ccccc1Nc1ccc(F)cc1; -30.4
CCOC(=O)c1cc(CC)sc1NC(=O)CCC(=O)O; -75.3
N#C/C(C(=O)NCc1ccco1)=C1/SC(Cc2ccc(Cl)cc2)C(=O)N1c1ccccc1 (stereo not drawn); -35.3

As a next step, examine the compound that follows.
Enquiry: GET /values?readout=inhibition&item= "CC(=O)Nc1sc2c(c1CN1CCN(c3ccccn3)CC1)CCCC2"
Return: 54.3

---

test: inhibitors of TNFa-induced NFkB p65 translocation, primary screen, imaging, HUVEC, MLSMR starter and 10KST1 sets (AID 438); settings: HUVEC TNFa-induced p65 nuclear translocation; measured here: nuclei count (cytotoxicity indicator), at 2.08 µM;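 further: compound added about 3h40 before a 20 min TNFalpha stimulation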
Each record here notes measured cell count.
Format: numeric value only, no unit, no commentary.

Example cases with answers are listed next.
COCCn1c(SCc2csc(-c3ccccc3)n2)nc2ccccc21; 639
Cc1ccccc1-n1c(SCc2c(C)noc2C)nnc1-c1ccncc1; 741
COc1cccc(Nc2cc(C)nc3ccccc23)c1; 259
CCN1CCc2c(C#N)c(NCc3ccccc3)nc(N(CC)CC)c2C1; 554
O=C(CCOc1ccccc1)NCc1ccccc1; 729
O=C(NCc1ccccc1)c1ccc(OC2CSC2)cc1; 655
O=C(CN1C(=O)CCS(=O)(=O)c2ccccc21)Nc1cccc(F)c1; 383
Cc1ccc(-c2cc3nc4c(c(=O)n3[nH]2)CCCC4)cc1; 663
CC(NC(=O)CSc1nc2c(cc1C#N)CN(C)CC2)c1ccccc1 (stereo unspecified); 739
COc1ccc(CC(=O)n2c(CC#N)nc3ccccc32)cc1OC; 598

Enquiry: GET /values?readout=cell count&item= "CCCCS(=O)(=O)NC1=NCN(C2CCN(Cc3ccccc3)CC2)CN1"
Return: 378

Enquiry: GET /values?readout=cell count&item= "COC(=O)CCC(=O)Nc1cccc(Br)c1"
Return: 495

Enquiry: GET /values?readout=cell count&item= "CCOC(=O)c1c(C)[nH]c(C(=O)COC(=O)c2ccc(F)c(S(=O)(=O)N3CCOCC3)c2)c1C"
Return: 376

Enquiry: GET /values?readout=cell count&item= "O=C(CSc1nc(N2CCCCC2)nc(N2CCCCC2)n1)Nc1nccs1"
Return: 280

Enquiry: GET /values?readout=cell count&item= "O=C(O)c1cccc(S(=O)(=O)N2CCOCC2)c1"
Return: 378

Enquiry: GET /values?readout=cell count&item= "Cc1ccc(CNc2oc(COc3ccccc3Cl)nc2C#N)cc1"
Return: 402

Enquiry: GET /values?readout=cell count&item= CCC(C)(C(=O)NC1CCCC1)N(C(=O)c1cnccn1)c1c(C)n(C)n(-c2ccccc2)c1=O (stereo unspecified)
Return: 568

---

assay: inhibitors of E-selectin induction by TNFa, primary screen, imaging, HUVEC, immunofluorescence, MLSMR starter and 10KST1 sets (AID 487); conditions: HUVEC TNFalpha-induced E-selectin immunofluorescence imaging, at 2 µM; stronger effect = higher value;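 further: signal is fraction of cell area covered by stained E-selectin grains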
Would you mind labelling by inhibition? At or over -60% is YES, under is NO.

Record excerpt, results attached:
CCCc1nnc(NC(=O)CCC(=O)N2CCN(CCOc3ccc(C)cc3)CC2)s1; YES
N#Cc1nc(-c2ccccc2Cl)oc1N1CCOCC1; YES
Cc1cc(C)c(C(=O)CSc2nnc(-c3ccccc3Br)o2)cc1C; NO
CC1(C)Cc2c(C#N)c(SCC(=O)c3ccccc3)nc(N3CCOCC3)c2CS1; NO

Enquiry: For this compound, is measured inhibition -60% or higher? "CN1CCc2c(c3c(n2C)CCN(C)[C@@H]3c2cccnc2)[C@H]1c1cccnc1"
Return: NO

Enquiry: For this compound, is measured inhibition -60% or higher? "COc1ccc(N(CC(=O)Nc2cc(C)ccc2C)S(=O)(=O)c2c(C)nn(C)c2C)cc1"
Return: YES

---

molecular target: Voltage-gated potassium channel subunit beta-2 (Rattus norvegicus) (UniProt P62483); assay: KvBeta positive modulators, primary screen, biochemical, NADPH fluorescence (AID 623); conditions: Recombinant KvBeta, NADPH fluorescence decrease slope, 10 min; at 10 µM; stronger effect = lower value;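 further: fluorescence intensity change per second fitted from 20 to 320 s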
Sequence (P62483 whole entry, looked up): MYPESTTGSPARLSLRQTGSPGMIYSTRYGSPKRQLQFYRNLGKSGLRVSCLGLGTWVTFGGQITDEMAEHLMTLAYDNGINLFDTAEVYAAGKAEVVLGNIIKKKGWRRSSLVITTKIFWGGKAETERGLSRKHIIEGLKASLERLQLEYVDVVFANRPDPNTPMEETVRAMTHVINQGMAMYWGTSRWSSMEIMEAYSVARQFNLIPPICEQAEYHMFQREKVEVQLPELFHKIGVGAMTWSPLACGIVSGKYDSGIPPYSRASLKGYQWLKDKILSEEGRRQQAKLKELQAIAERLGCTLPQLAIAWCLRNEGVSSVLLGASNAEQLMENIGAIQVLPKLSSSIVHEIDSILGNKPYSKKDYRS
Each record here notes measured NADPH fluorescence slope.
Format: numeric value only, no unit, no commentary.

Example cases with answers are listed next.
CCOc1ccc(-c2nc(C#N)c(N3CCN(CC)CC3)o2)cc1; -0.00012
Cc1nn(C(=O)c2ccoc2C)c(N)c1-c1ccccc1; -4.2e-05

Enquiry: GET /values?readout=NADPH fluorescence slope&item= "CCc1nc(NC2CCCCC2)c(C#N)c2c1COC(C)(C)C2"
Return: -2.5e-05

Enquiry: GET /values?readout=NADPH fluorescence slope&item= COC(=O)CC1=C(C(=O)OC)C(c2cccc(OCC(N)=O)c2)C(C#N)=C(N)O1 (stereo unspecified)
Return: -7e-05

Enquiry: GET /values?readout=NADPH fluorescence slope&item= O=C(CC1Oc2ccc(Cl)cc2NC1=O)NC1CCCCCC1 (stereo unspecified)
Return: -3.7e-05

Enquiry: GET /values?readout=NADPH fluorescence slope&item= CCOCCCNC(=O)C1CCCN(S(=O)(=O)CC)C1 (stereo unspecified)
Return: -4e-05

Enquiry: GET /values?readout=NADPH fluorescence slope&item= "CCc1nc2c(sc3nc(N4CCOCC4)c4c(c32)CC(C)(C)OC4)c(=O)o1"
Return: -8.3e-05

Enquiry: GET /values?readout=NADPH fluorescence slope&item= "Cc1oc(-c2ccccc2F)nc1CS(=O)(=O)CC(=O)NCc1ccco1"
Return: -1.9e-05

Enquiry: GET /values?readout=NADPH fluorescence slope&item= "CCOC(=O)C1CCN(C(=O)CCCCn2c(=O)[nH]c3ccccc3c2=O)CC1"
Return: 3.1e-05

Enquiry: GET /values?readout=NADPH fluorescence slope&item= "Cc1cc(C)c(S(=O)(=O)O)c(C)n1"
Return: -4.7e-05

Enquiry: GET /values?readout=NADPH fluorescence slope&item= "Nc1nonc1N1CCCCC1"
Return: -4.6e-05

---

Each record here notes measured nuclei count.
assay: inhibitors of mutant huntingtin aggregation, primary screen, imaging, exon1htt(103Q)mCFP cells, high-content imaging (AID 483); details: exon1htt(103Q)mCFP cell line, aggregate imaging, at 2 µM; measured here: cell count, toxicity;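 further: compound exposure lasted 3 days before fixation; percent of the per-plate median nuclei count of sample wells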
Quick note: give the figure in %, leave out the unit.

Example cases with answers are listed next.
COc1cccc(-c2nc3n(n2)C(c2ccccc2Cl)C(C(N)=O)=C(C)N3)c1 (stereo not given); 114
Cc1c(NC(=O)C(C)OC(=O)c2cc3c4ccccc4n(C)c3s2)c(=O)n(-c2ccccc2)n1C (stereo not given); 67.6
C=C(C)Cn1c(N2CC(C)CC(C)C2)nc2c1c(=O)[nH]c(=O)n2C (stereo not given); 104
Cc1ccc(NC(=O)CCN2CCc3ccccc3C2)cc1; 86.9

As a next step, examine the compound that follows.
Enquiry: GET /values?readout=nuclei count&item= COc1ccc(C2C3=C(CCCC3=O)Nc3nc(SCc4ccccc4)nn32)cc1OC (stereo not given)
Return: 91.2

---

Each record here notes measured fluorescence slope.
target: Voltage-gated potassium channel subunit beta-2 (Rattus norvegicus); experiment: KvBeta enzyme negative modulators, primary screen, biochemical, NADPH fluorescence (AID 622); conditions: recombinant KvBeta, 4-cyanobenzaldehyde reduction, at 10 µM, stronger effect = higher value;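 further: slope of raw intensity against log time taken from 70 to 1610 s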
Format: numeric value only, no unit, no commentary.

O=C(C1CCCN(S(=O)(=O)c2ccc(Br)s2)C1)N1CCCCCC1 (stereo unspecified); -0.378
O=C(CCCNS(=O)(=O)c1ccccc1)NCc1ccco1; -0.425
CCN1CCN(CCCNC(=O)C2c3ccccc3C(=O)N(C)C2c2ccc(OC)cc2)CC1 (stereo unspecified); -0.504
CC(O)CNc1nc2c(c(=O)n(C)c(=O)n2C)n1CCc1ccccc1 (stereo unspecified); -0.464

Enquiry: Return fluorescence slope measured with Voltage-gated potassium channel subunit beta-2 (Rattus norvegicus) given this compound: "CCOC(=O)C(C(=O)OCC)N(C#N)c1nc(SC)nc(N(C)C)n1"
Return: -0.457

Enquiry: Return fluorescence slope measured with Voltage-gated potassium channel subunit beta-2 (Rattus norvegicus) given this compound: c1ccc(CC2CCN(C(c3cccs3)c3nnnn3C3CCCC3)CC2)cc1 (stereo unspecified)
Return: -0.558

Enquiry: Return fluorescence slope measured with Voltage-gated potassium channel subunit beta-2 (Rattus norvegicus) given this compound: Cc1ccc(OCC(O)CNS(=O)(=O)c2ccccc2C(=O)O)cc1 (stereo unspecified)
Return: -0.412

Enquiry: Return fluorescence slope measured with Voltage-gated potassium channel subunit beta-2 (Rattus norvegicus) given this compound: "CCc1ccc(CNCc2cccnc2)cc1"
Return: -0.464

Enquiry: Return fluorescence slope measured with Voltage-gated potassium channel subunit beta-2 (Rattus norvegicus) given this compound: "CCc1nc(NCCN2CCOCC2)c(C#N)c2c1CCCC2"
Return: -0.595

Enquiry: Return fluorescence slope measured with Voltage-gated potassium channel subunit beta-2 (Rattus norvegicus) given this compound: "Clc1ccc(-n2ncc3c(NCc4ccccn4)ncnc32)cc1"
Return: -0.374

Enquiry: Return fluorescence slope measured with Voltage-gated potassium channel subunit beta-2 (Rattus norvegicus) given this compound: "CC(C)CNC(=O)c1c(N)n(/N=C/c2cccnc2)c2nc3ccccc3nc12"
Return: -0.347
